test system: A. baumannii (Ab); experiment: Broth microdilution minimum inhibitory concentration (MIC); assay type: cell-based; conditions: Acinetobacter baumannii; A. baumannii; growth medium supplemented with sodium bicarbonate; read-out: Ab + bicarb MIC
quantity: MIC

MIC in this record for CC(C)(N)C(=O)N1CCN(C(=O)Nc2ccn(-c3ccc(CNCC4CC(N)C4)cc3)c(=O)n2)CC1 (centres unmarked) [Compound 126] : > 32 µg/mL

MIC in this record for CNC1CCCN(CCc2ccc(-n3ccc(NC(=O)N4CCN(C(=O)C(C)(C)N)CC4)nc3=O)cc2)CC1 (centres unmarked) [Compound 33] : > 32 µg/mL

MIC in this record for CC(N)C1CCN(CCc2cccc(-n3ccc(NC(=O)N4CCN(C(=O)C(C)(C)N)CC4)nc3=O)c2)CC1 (centres unmarked) [Compound 34] : > 32 µg/mL

MIC in this record for CC(C)(N)C(=O)N1CCN(C(=O)Nc2ccn(-c3ccc(CN(CC4CC4)[C@H]4CC[C@H](N)CC4)cc3)c(=O)n2)CC1 [Compound 130] : 8 to 32 µg/mL

MIC in this record for CC(C)(N)C(=O)N1CCN(C(=O)Nc2ccn(-c3ccc(CN4CC(CCN)C4)cc3)c(=O)n2)CC1 [Compound 134] : > 32 µg/mL

MIC in this record for CC(C)(N)C(=O)N1CCN(C(=O)Nc2ccn(-c3ccc(CN[C@H]4CC[C@@H](N)CC4)cc3)c(=O)n2)CC1 [Compound 120] : > 32 µg/mL

MIC in this record for CCC(N)C1CCCN(Cc2ccc(-n3ccc(NC(=O)N4CCN(C(=O)C(C)(C)N)CC4)nc3=O)cc2)C1 (centres unmarked) [Compound 110] : > 32 µg/mL

MIC in this record for CCCN(Cc1ccc(-n2ccc(NC(=O)N3CCN(C(=O)C(C)(C)N)CC3)nc2=O)cc1)[C@H]1CC[C@H](N)CC1 [Compound 131] : < 8 µg/mL

MIC in this record for CC(C)(N)C(=O)N1CCN(C(=O)Nc2ccn(-c3ccc(CCNC4CCCNCC4)cc3)c(=O)n2)CC1 (centres unmarked) [Compound 30] : > 32 µg/mL

MIC in this record for CC(C)(N)C(=O)N1CCN(C(=O)Nc2ccn(-c3ccc(CCN4CCCC(N)CC4)c(F)c3)c(=O)n2)CC1 (centres unmarked) [Compound 141] : > 32 µg/mL

MIC in this record for CC(Cc1ccc(-n2ccc(NC(=O)N3CCN(C(=O)C(C)(C)N)CC3)nc2=O)cc1)N(C)C[C@H]1C[C@@H](N)C1 (some centres unmarked) [Compound 160] : > 32 µg/mL

MIC in this record for CC(C)(N)C(=O)N1CCN(C(=O)Nc2ccn(-c3ccc(CN(CCO)[C@H]4CC[C@H](N)CC4)cc3)c(=O)n2)CC1 [Compound 132] : > 32 µg/mL

MIC in this record for CC(C)(N)C(=O)N1CCN(C(=O)Nc2ccn(-c3ccc(CCN4CCCC(N)CC4)c(C(F)(F)F)c3)c(=O)n2)CC1 (centres unmarked) [Compound 142] : 8 to 32 µg/mL

MIC in this record for CC(C)(N)C(=O)N1CCN(C(=O)Nc2ccn(-c3ccc(CCN4CCCC(NC5CC5)CC4)cc3)c(=O)n2)CC1 (centres unmarked) [Compound 29] : > 32 µg/mL

###

test system: A. baumannii (Ab); experiment: Broth microdilution minimum inhibitory concentration (MIC); format: cell-based; details: Acinetobacter baumannii; A. baumannii; growth medium with sodium bicarbonate; read-out: Ab + bicarb MIC
Provide the reported MIC of each item.

MIC in this record for CC(C)(N)C(=O)N1CCN(C(=O)Nc2ccn(-c3ccc(CCN4CC(C5CCNCC5)C4)cc3)c(=O)n2)CC1 : > 32 µg/mL

MIC in this record for CC1CN(Cc2ccc(-n3ccc(NC(=O)N4CCN(C(=O)[C@@](C)(N)CO)CC4)nc3=O)cc2)CCC1N (stereo partly shown) : > 32 µg/mL

MIC in this record for CC(C)(N)C(=O)N1CCN(C(=O)Nc2ccn(-c3ccc(OCCN4CCCC(N)CC4)cc3)c(=O)n2)CC1 (stereo not shown) : 8 to 32 µg/mL

MIC in this record for CCN(Cc1ccc(-n2ccc(NC(=O)N3CCN(C(=O)C(C)(C)N)CC3)nc2=O)cc1C)C1CCC(N)CC1 (stereo not shown) : < 8 µg/mL

###

system: E. faecalis (Ef); test: Broth microdilution minimum inhibitory concentration (MIC); format: cell-based; conditions: Enterococcus faecalis, E. faecalis; growth medium supplemented with sodium bicarbonate; read-out: Ef + bicarb MIC
quantity: MIC

MIC in this record for CC(C)(N)C(=O)N1CCN(C(=O)Nc2ccn(-c3ccc(CCN4CCC[C@H](CN)C4)cc3)c(=O)n2)CC1 : 8 to 32 µg/mL

MIC in this record for CC(N)[C@@H]1CCN(CCc2ccc(-n3ccc(NC(=O)N4CCN(C(=O)C(C)(C)N)CC4)nc3=O)cc2)C1 (stereo partly shown) : 8 to 32 µg/mL

MIC in this record for CC(C)(N)C(=O)N1CCN(C(=O)Nc2ccn(-c3ccc(CCN4CCCC(N)CC4)c(F)c3)c(=O)n2)CC1 (stereo not shown) : < 8 µg/mL

MIC in this record for CN(Cc1ccc(-n2ccc(NC(=O)N3CCN(C(=O)C(C)(C)N)CC3)nc2=O)cc1)[C@H]1CC[C@H](N)C1 : < 8 µg/mL

MIC in this record for C[C@@H]1CN(C(=O)Nc2ccn(-c3ccc(CN4CCC(N)CC4)cc3)c(=O)n2)CCN1C(=O)C(C)(C)N : 8 to 32 µg/mL

MIC in this record for CC(C)(N)C(=O)N1CCN(C(=O)Nc2ccn(-c3ccc(CN(CCF)[C@H]4CC[C@H](N)CC4)cc3)c(=O)n2)CC1 : > 32 µg/mL

MIC in this record for CN(Cc1ccc(-n2ccc(NC(=O)N3CCN(C(=O)C(C)(C)N)CC3)nc2=O)cc1)[C@@H]1CC[C@H](N)C1 : 8 to 32 µg/mL

###

Provide the reported MIC of each item.
system: E. faecalis (Ef); test: Broth microdilution minimum inhibitory concentration (MIC); format: cell-based; conditions: Enterococcus faecalis, E. faecalis; growth medium supplemented with sodium bicarbonate; read-out: Ef + bicarb MIC

MIC in this record for CCN(C(C)Cc1ccc(-n2ccc(NC(=O)N3CCN(C(=O)C(C)(C)N)CC3)nc2=O)cc1)C1CCC(CN)CC1 (stereo not drawn) : < 8 µg/mL

MIC in this record for C[C@@H]1CN(C(=O)C(C)(C)N)CCN1C(=O)Nc1ccn(-c2ccc(CN3CCC(CN)CC3)cc2)c(=O)n1 : < 8 µg/mL

MIC in this record for CC(C)(N)C(=O)N1CCN(C(=O)Nc2ccn(-c3ccc(CN[C@@H]4CC[C@H](N)C4)cc3)c(=O)n2)CC1 : > 32 µg/mL

MIC in this record for CC(C)(N)C(=O)N1CCN(C(=O)Nc2ccn(-c3ccc(C[C@@H](N)C(=O)N4CCCC(N)CC4)cc3)c(=O)n2)CC1 (stereo partly drawn) : > 32 µg/mL

MIC in this record for C[C@@H]1CN(CCc2ccc(-n3ccc(NC(=O)N4CCN(C(=O)C(C)(C)N)CC4)nc3=O)cc2)CC[C@H]1N : 8 to 32 µg/mL

MIC in this record for CC(C)(N)C(=O)N1CCN(C(=O)Nc2ccn(-c3ccc(CCCN4CCCC(N)CC4)cc3)c(=O)n2)CC1 (stereo not drawn) : 8 to 32 µg/mL

MIC in this record for CC(C)(N)C(=O)N1CCN(C(=O)Nc2ccn(-c3ccc(C[C@H](N)C(=O)NC4CNC4)cc3)c(=O)n2)CC1 : > 32 µg/mL

MIC in this record for CC(Cc1ccc(-n2ccc(NC(=O)N3CCN(C(=O)C(C)(C)N)CC3)nc2=O)cc1)N(C)[C@H]1CC[C@@H](N)C1 (stereo partly drawn) : 8 to 32 µg/mL

MIC in this record for CC(N)[C@H]1CCN(CCc2ccc(-n3ccc(NC(=O)N4CCN(C(=O)C(C)(C)N)CC4)nc3=O)cc2)C1 (stereo partly drawn) : 8 to 32 µg/mL

MIC in this record for CC(C)(N)C(=O)N1CCN(C(=O)Nc2ccn(-c3ccc(CN(CCO)[C@H]4CC[C@H](N)CC4)cc3)c(=O)n2)CC1 : > 32 µg/mL

MIC in this record for CC(C)(N)C(=O)N1CCN(C(=O)Nc2ccn(-c3ccc(CNCC4CC(N)C4)cc3)c(=O)n2)CC1 (stereo not drawn) : > 32 µg/mL

MIC in this record for CCN(C(C)Cc1ccc(-n2ccc(NC(=O)N3CCN(C(=O)C(C)(C)N)CC3)nc2=O)cc1)[C@H]1CC[C@@H](N)C1 (stereo partly drawn) : < 8 µg/mL

MIC in this record for CC(C)(N)C(=O)N1CCN(C(=O)Nc2ccn(-c3ccc(CCN4CCCC(N)CC4)cc3)c(=O)n2)CC1 (stereo not drawn) : < 8 µg/mL

MIC in this record for CC(C)(N)C(=O)N1CCN(C(=O)Nc2ccn(-c3ccc(CN4CCC(N)CC4)cc3)c(=O)n2)CC1 : 8 to 32 µg/mL

MIC in this record for CC(C)(N)C(=O)N1CCN(C(=O)Nc2ccn(-c3ccc(CN4CC(CCN)C4)cc3)c(=O)n2)CC1 : 8 to 32 µg/mL

MIC in this record for CN(Cc1ccc(-n2ccc(NC(=O)N3CCN(C(=O)C(C)(C)N)CC3)nc2=O)cc1)[C@H]1CC[C@@H](N)CC1 : < 8 µg/mL

MIC in this record for CC(C)(N)C(=O)N1CCN(C(=O)Nc2ccn(-c3ccc(C(N)C(=O)N4CC(N)C4)cc3)c(=O)n2)CC1 (stereo not drawn) : > 32 µg/mL

MIC in this record for CN(Cc1ccc(-n2ccc(NC(=O)N3CCN(C(=O)C(C)(C)N)CC3)nc2=O)cc1)[C@H]1CC[C@H](N)CC1 : < 8 µg/mL

MIC in this record for CC(C)(N)C(=O)N1CCN(C(=O)Nc2ccn(-c3ccc(CN[C@H]4CC[C@H](N)CC4)cc3)c(=O)n2)CC1 : < 8 µg/mL

MIC in this record for CC(C)(N)C(=O)N1CCN(C(=O)Nc2ccn(-c3ccc(CCNC4CCCNCC4)cc3)c(=O)n2)CC1 (stereo not drawn) : > 32 µg/mL

MIC in this record for CC(Cc1ccc(-n2ccc(NC(=O)N3CCN(C(=O)C(C)(C)N)CC3)nc2=O)cc1)NC1CCC(CN)CC1 (stereo not drawn) : > 32 µg/mL

MIC in this record for Cc1cc(-n2ccc(NC(=O)N3CCN(C(=O)C(C)(C)N)CC3)nc2=O)ccc1CN1CCC(N)CC1 : < 8 µg/mL

MIC in this record for CC(Cc1ccc(-n2ccc(NC(=O)N3CCN(C(=O)C(C)(C)N)CC3)nc2=O)cc1)NC[C@H]1C[C@@H](N)C1 (stereo partly drawn) : 8 to 32 µg/mL

MIC in this record for CC(N)C1CCN(Cc2ccc(-n3ccc(NC(=O)N4CCN(C(=O)[C@@](C)(N)CO)[C@H](C)C4)nc3=O)cc2)CC1 (stereo partly drawn) : < 8 µg/mL

MIC in this record for CN(Cc1ccc(-n2ccc(NC(=O)N3CCN(C(=O)C(C)(C)N)CC3)nc2=O)cc1)CC1CC(N)C1 (stereo not drawn) : < 8 µg/mL

MIC in this record for CCN(C[C@H]1C[C@H](N)C1)C(C)Cc1ccc(-n2ccc(NC(=O)N3CCN(C(=O)C(C)(C)N)CC3)nc2=O)cc1 (stereo partly drawn) : < 8 µg/mL

MIC in this record for C[C@](N)(CO)C(=O)N1CCN(C(=O)Nc2ccn(-c3ccc(CN4CC(CCN)C4)cc3)c(=O)n2)CC1 : 8 to 32 µg/mL

Entry source: patent US12503452B2
